test system: southern pine beetle; experiment: Field assay with frontalure-baited Lindgren funnel traps; assay type: in vivo; details: mean over the trials in which the compound was tested
measure: mean rank

In [3]: df
Out[3]:
                              compound          study_system  result
0                    COc1ccc(C(C)C)cc1  southern pine beetle     3.5
1  C/C=C/c1ccc(OC)cc1 [trans-anethole]  southern pine beetle    4.25
2                           COc1ccccc1  southern pine beetle     3.5
3                       C=Cc1ccc(C)cc1  southern pine beetle     2.5
4                         C=CCc1ccccc1  southern pine beetle     4.0
5                            Cc1ccccc1  southern pine beetle     2.5
6                     C=CCc1ccc(OC)cc1  southern pine beetle     1.0

From: patent US20020061325A1
